- target.or.system: CDK2 cyA (Homo sapiens, UniProt P24941)
- assay.text: CDK2 cyA IMAP
- Assay type: biochemical
- assay.conditions: Table 2; read-out: CDK2cyA IMAP/ IC50
readout: IC50

- Cc1ccc(CNc2nccc(-c3c[nH]nc3C)n2)cc1: ≥ 15 µM
- CC(C)c1n[nH]cc1-c1ccnc(NC2CCN(C)CC2)n1: < 1 µM
- Cc1n[nH]cc1-c1ccnc(NC2CCC2)n1: < 5 µM
- CC(C)c1n[nH]cc1-c1ccnc(N[C@H]2CCCc3ccccc32)n1: ≥ 15 µM
- Cc1n[nH]cc1-c1ccnc(NCc2ccco2)n1: ≥ 15 µM
- CC(C)c1n[nH]cc1-c1ccnc(NC2CCN(c3ccccc3)CC2)n1: < 0.5 µM
- CC(C)c1n[nH]cc1-c1ccnc(NCc2c(F)cccc2F)n1: < 5 µM
- Cc1nnc(CCNc2nccc(-c3c[nH]nc3C(C)C)n2)[nH]1: < 5 µM
- CC(C)c1n[nH]cc1-c1ccnc(NC2CCCc3ccccc32)n1 (stereo not shown): < 1 µM

Consider the record given below.
QUERY: Output measured IC50 for this item: CC(C)c1n[nH]cc1-c1ccnc(NC(C)c2ccccn2)n1 (stereo not shown)
RESULT: < 10 µM
